meta.source: ChEMBL document CHEMBL3044674

Test system: Rhizopus arrhizus
assayRemarks: Antifungal activity against Rhizopus oryzae MTCC 262 after 24 hr by paper disk method
Format: functional
experimentalContext: MTCC 262, 24 h

| smilesStr | MIC (µg/mL) |
| --- | --- |
| O=[N+]([O-])c1ccc2c(c1)nc(C(F)(F)F)n2CCCCCl | 500 |
| C#CCn1c(C(F)(F)F)nc2ccc([N+](=O)[O-])cc21 | 700 |
| CCOC(=O)Cn1c(C(F)(F)C(F)(F)F)nc2ccc(C(=O)c3ccccc3)cc21 | 850 |
| CCOC(=O)Cn1c(C(F)(F)C(F)(F)F)nc2cc(C(=O)c3ccccc3)ccc21 | 800 |
| O=[N+]([O-])c1ccc2nc(C(F)(F)F)n(CCCCl)c2c1 | 300 |
| CCOC(=O)Cn1c(C(F)(F)F)nc2cc(C(=O)c3ccccc3)ccc21 | 450 |
| O=[N+]([O-])c1ccc2c(c1)nc(C(F)(F)F)n2CCCCl | 200 |
| CCOC(=O)Cn1c(C(F)(F)F)nc2ccc([N+](=O)[O-])cc21 | 700 |
| CCn1c(C(F)(F)F)nc2cc([N+](=O)[O-])ccc21 | 700 |
| C#CCn1c(C(F)(F)F)nc2cc([N+](=O)[O-])ccc21 | 700 |
| O=[N+]([O-])c1ccc2c(c1)nc(C(F)(F)C(F)(F)F)n2CCCCCl | 700 |
